Where these numbers come from: patent US11612606B2

test-description: Hepatocyte stability assay
Assay type: in vitro ADME
conditions-used: cryopreserved human hepatocytes (10 donor pool, suspension), scaled hepatic clearance, read-out: HHep Clearance
assay-readout: CLhep predicted at 1 μM (mL/min/kg)
Answers are plain numbers, in mL/min/kg.

compound | unit-of-measure | CLhep predicted at 1 μM
CO[C@H]1COC[C@@H]1OC(=O)Nc1cc2cc(-c3cnc4c(c3C)NCCO4)c(F)c(N)c2cn1 (single isomer, unassigned) [Compound 546a] | mL/min/kg | 6.5
Cc1c(-c2cc3cc(NC(=O)OC4CCOCC4)ncc3c(N)c2F)cnc2c1NCCO2 | mL/min/kg | 9.2

Now look at this one.
Q. State the recorded CLhep predicted at 1 μM for this entry: Cc1c(-c2cc3cc(NC(=O)N4CC(C)(F)C4)ncc3c(N)c2F)cnc2c1NCCO2
A. 6.8

----------
experimental-system: HPK full length, T165E S171E (Homo sapiens (Human), UniProt Q92918, S171E/T165E)
Sequence (Q92918 whole entry T165E/S171E, looked up): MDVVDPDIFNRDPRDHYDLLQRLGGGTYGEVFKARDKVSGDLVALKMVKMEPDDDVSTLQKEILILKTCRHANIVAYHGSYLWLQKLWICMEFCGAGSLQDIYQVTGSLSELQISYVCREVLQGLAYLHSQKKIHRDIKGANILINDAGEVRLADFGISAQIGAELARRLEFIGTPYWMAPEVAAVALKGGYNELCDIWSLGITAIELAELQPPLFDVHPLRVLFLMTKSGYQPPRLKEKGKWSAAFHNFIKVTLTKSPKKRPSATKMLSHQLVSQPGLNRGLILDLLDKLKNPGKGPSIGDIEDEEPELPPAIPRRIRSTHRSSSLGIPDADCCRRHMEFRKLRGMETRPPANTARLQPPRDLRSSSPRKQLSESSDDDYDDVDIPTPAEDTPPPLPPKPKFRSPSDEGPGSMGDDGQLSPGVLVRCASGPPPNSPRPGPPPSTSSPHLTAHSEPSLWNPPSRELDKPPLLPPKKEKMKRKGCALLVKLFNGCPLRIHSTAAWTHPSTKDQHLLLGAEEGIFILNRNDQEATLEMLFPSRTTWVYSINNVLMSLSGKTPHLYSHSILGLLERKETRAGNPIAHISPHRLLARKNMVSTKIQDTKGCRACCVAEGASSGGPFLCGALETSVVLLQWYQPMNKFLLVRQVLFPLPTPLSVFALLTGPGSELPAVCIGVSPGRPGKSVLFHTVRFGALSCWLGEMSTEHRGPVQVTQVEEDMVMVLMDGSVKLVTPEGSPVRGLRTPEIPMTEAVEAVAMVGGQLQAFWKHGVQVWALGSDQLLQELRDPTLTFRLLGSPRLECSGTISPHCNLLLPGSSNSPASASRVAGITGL
test-description: HPK1-FL HTRF enzymatic assay ("HTRF")
Format: biochemical
conditions-used: ATP 1 mM, read-out: HPK1 Ki
Where a name gives a salt, the structure may show the parent alone.
Task for the reader: assign each of the following compounds its reported log10(Ki).
// units: nM (pre-log); metric: Ki; scale: log10

Some solved entries appear below for comparison.
compound | experimental-system | log10(Ki)
Cc1c(-c2cc3cc(NC(=O)OC4CN(C)CCN(C)C4)ncc3c(N)c2F)cnc2c1NCCO2 [Compound 465] | HPK full length, T165E S171E (Homo sapiens (Human), UniProt Q92918, S171E/T165E) | -0.34
Cc1c(-c2cc3cc(NC(=O)N(C)C4CCC4)ncc3c(N)c2F)cnc2c1NCCO2 [Compound 752] | HPK full length, T165E S171E (Homo sapiens (Human), UniProt Q92918, S171E/T165E) | -0.28
Cc1c(-c2cc3cc(NC(=O)OC4C5CC4CN(C)C5)ncc3c(N)c2F)cnc2c1NCCO2 (stereo not drawn) [Compound 431] | HPK full length, T165E S171E (Homo sapiens (Human), UniProt Q92918, S171E/T165E) | 0.36
Cc1c(-c2cc3cc(NC(=O)N4CC(C)C4)ncc3c(N)c2F)cnc2c1NCCO2 [Compound 751] | HPK full length, T165E S171E (Homo sapiens (Human), UniProt Q92918, S171E/T165E) | -1.36
CC[C@@H]1COC[C@H]1OC(=O)Nc1cc2cc(-c3cnc4c(c3C)NCCO4)c(F)c(N)c2cn1 (single isomer, unassigned) [Compound 515a] | HPK full length, T165E S171E (Homo sapiens (Human), UniProt Q92918, S171E/T165E) | -0.98

Parameters: items (list). Returns: log10(Ki) for each item.
1. Cc1c(-c2cc3cc(NC(=O)O[C@@H]4CC[C@@](C)(O)C4)ncc3c(N)c2F)cnc2c1NCCO2 (single isomer, unassigned) [Compound 533a, hydrochloride]
2. Cc1c(-c2cc3cc(NC(=O)OC4CC5(C4)CN(CC(F)F)C5)ncc3c(N)c2F)cnc2c1NCCC2 [Compound 532]
3. Cc1c(-c2cc3cc(NC(=O)OC4CCS(=O)(=O)CC4)ncc3c(N)c2F)cnc2c1NCCC2 [Compound 579]
4. Cc1c(-c2cc3cc(NC(=O)O[C@H]4COC[C@@H]4C4CC4)ncc3c(N)c2F)cnc2c1NCCO2 (single isomer, unassigned) [Compound 516a]
5. Cc1c(-c2cc3cc(NC(=O)O[C@H]4CC[C@](C)(O)C4)ncc3c(N)c2F)cnc2c1NCCO2 (single isomer, unassigned) [Compound 533b, hydrochloride]
6. Cc1c(-c2cc3cc(NC(=O)O[C@H]4CCN([C@H]5CCOC5)C[C@H]4F)ncc3c(N)c2F)cnc2c1NCCO2 [Compound 569c]

A.
[-1.46, -1.85, -0.07, -1.51, -1.23, -1.54]

Q. Report log10(Ki) for Cc1c(-c2cc3cc(NC(=O)OC4CCOCC4)ncc3c(N)c2F)cnc2c1NCCO2 [Compound 401] please.
A. -1.72

----------
experimental-system: HPK full length, T165E S171E (Homo sapiens (Human), UniProt Q92918, S171E/T165E)
test-description: HPK1-FL HTRF enzymatic assay ("HTRF")
Type: biochemical
conditions-used: ATP 1 mM, read-out: HPK1 Ki
assay-readout: pKi
One number for each entry, as −log10 of the molar value.

For every item below, please supply its pKi.
1. Cc1c(-c2cc3cc(NC(=O)OC(C)C)ncc3c(N)c2F)cnc2c1NCCO2 [Compound 436]
2. Cc1c(-c2cc3cc(NC(=O)O[C@@H]4CC(=O)N(C)C4)ncc3c(N)c2F)cnc2c1NCCO2 (single isomer, unassigned) [Compound 410b]
3. Cc1c(N)cncc1-c1cc2cc(NC(=O)O[C@H]3COC[C@@H]3C)ncc2c(N)c1F (single isomer, unassigned) [Compound 544a]
4. CCN1C[C@H](OC(=O)Nc2cc3cc(-c4cnc5c(c4C)NCCO5)c(F)c(N)c3cn2)CC1=O (single isomer, unassigned) [Compound 478a]

A.
1: 10.85; 2: 10.54; 3: 9.86; 4: 9.60

----------
experimental-system: HPK full length, T165E S171E (Homo sapiens (Human), UniProt Q92918, S171E/T165E)
test-description: HPK1-FL HTRF enzymatic assay ("HTRF")
Type: biochemical
conditions-used: ATP 1 mM, read-out: HPK1 Ki
assay-readout: Ki

The following compounds have reported results that may help.
compound | Ki
Cc1c(-c2cc3cc(NC(=O)O[C@H]4CCC[C@@H]4C#N)ncc3c(N)c2F)cnc2c1NCCO2 (single isomer, unassigned) [Compound 482b] | < 0.013 nM
Cc1c(-c2cc3cc(NC(=O)O[C@@H]4[C@@H]5COC[C@@H]54)ncc3c(N)c2F)cnc2c1NCCO2 [Compound 543b] | 0.083 nM

Q. Give the measured Ki of CC(=O)N1CC[C@H](NC(=O)Nc2cc3cc(-c4cnc5c(c4C)NCCO5)c(F)c(N)c3cn2)[C@H](F)C1 (single isomer, unassigned) [Compound 710a] .
A. < 0.013 nM

----------
test-description: Pharmacokinetic study in rat
Format: in vivo, Sprague Dawley rat
conditions-used: male, Sprague Dawley, plasma, PO 5 mg/kg, 10/90 DMSO/MCT, Suspension
assay-readout: bioavailability (%)
Numbers only, in %.

Q. # lookup: bioavailability of Cc1c(-c2cc3cc(NC(=O)O[C@@H]4CCOC4)ncc3c(N)c2F)cnc2c1NCCO2 [Compound 403a]
A. 4

----------
Would you kindly list Ki for each of these compounds?
experimental-system: HPK full length, T165E S171E (Homo sapiens (Human), UniProt Q92918, S171E/T165E)
test-description: HPK1-FL HTRF enzymatic assay ("HTRF")
Assay type: biochemical
conditions-used: ATP 1 mM, read-out: HPK1 Ki
Answers are plain numbers, in nM.

Solved entries (count: 4):
compound | Ki [nM]
Cc1c(-c2cc3cc(NC(=O)OC4CN(S(C)(=O)=O)C4)ncc3c(N)c2F)cnc2c1NCCC2 | 0.064
Cc1c(-c2cc3cc(NC(=O)OC4CCN(C)CC4)ncc3c(N)c2F)cnc2c1NCCO2 | 0.03
Cc1c(-c2cc3cc(NC(=O)OC4CCOCC4)ncc3c(N)c2F)cnc2c1NCC[C@@H]2C (single isomer, unassigned) [Compound 461b] | 1.01
Cc1c(-c2cc3cc(NC(=O)OC4CCOCC4)ncc3c(N)c2F)cnc2c1NCC[C@H]2C (single isomer, unassigned) [Compound 461a] | 0.891

Need Ki for each of these compounds.
1. Cc1c(-c2cc3cc(NC(=O)O[C@H]4Cc5nccn5C4)ncc3c(N)c2F)cnc2c1NCCO2 (single isomer, unassigned) [Compound 504b]
2. Cc1c(-c2cc3cc(NC(=O)N[C@H]4C[C@H](F)C4)ncc3c(N)c2F)cnc2c1NCCO2 [Compound 748b]
3. Cc1c(-c2cc3cc(NC(=O)O[C@H]4C[C@@H](O)C4)ncc3c(N)c2F)cnc2c1NC[C@H]1C[C@@H]21 (single isomer, unassigned) [Compound 584b]
4. CO[C@@H]1COCC[C@@H]1NC(=O)Nc1cc2cc(-c3cnc4c(c3C)NCCO4)c(F)c(N)c2cn1 (single isomer, unassigned) [Compound 750a]
5. Cc1c(-c2cc3cc(NC(=O)O[C@H]4C[C@@H](C(F)F)C4)ncc3c(N)c2F)cnc2c1NCCO2 [Compound 577a]
6. Cc1c(-c2cc3cc(NC(=O)O[C@@H]4CCOC4)ncc3c(N)c2F)cnc2c1[C@H](O)CC2 [Compound 548b]

A.
1. 0.76
2. 0.018
3. 2.1
4. 0.96
5. 0.015
6. 93

----------
experimental-system: HPK full length, T165E S171E (Homo sapiens (Human), UniProt Q92918, S171E/T165E)
test-description: HPK1-FL HTRF enzymatic assay ("HTRF")
Format: biochemical
conditions-used: ATP 1 mM, read-out: HPK1 Ki
assay-readout: pKi
One number for each entry, as −log10 of the molar value.

The examples below pair each entry with its known result.
compound | value
CO[C@@H]1CCC[C@@H]1NC(=O)Nc1cc2cc(-c3cnc4c(c3C)NCCO4)c(F)c(N)c2cn1 (single isomer, unassigned) [Compound 729a] | 8.86
Cc1c(-c2cc3cc(NC(=O)O[C@H]4C[C@@H](O)C4)ncc3c(N)c2F)cnc2c1NC[C@@H]1C[C@H]21 (single isomer, unassigned) [Compound 584a] | 9.85
Cc1c(-c2cc3cc(NC(=O)O[C@H]4CC(=O)N(C)C4)ncc3c(N)c2F)cnc2c1NCCO2 (single isomer, unassigned) [Compound 410a] | 9.78

Alright, here's another compound for you.
Q. If you can, please state the reported pKi value of CO[C@@H]1COC[C@@H]1NC(=O)Nc1cc2cc(-c3cnc4c(c3C)NCCO4)c(F)c(N)c2cn1 (single isomer, unassigned) [Compound 723a] .
A. 9.33
